assay_system: PAF receptor (Oryctolagus cuniculus, UniProt G1TEI7)
Construct: Cell membrane fraction of rabbit platelets was prepared; from tissue; host or cells: rabbit platelets (cell membrane fraction)
Sequence (G1TEI7 1-342): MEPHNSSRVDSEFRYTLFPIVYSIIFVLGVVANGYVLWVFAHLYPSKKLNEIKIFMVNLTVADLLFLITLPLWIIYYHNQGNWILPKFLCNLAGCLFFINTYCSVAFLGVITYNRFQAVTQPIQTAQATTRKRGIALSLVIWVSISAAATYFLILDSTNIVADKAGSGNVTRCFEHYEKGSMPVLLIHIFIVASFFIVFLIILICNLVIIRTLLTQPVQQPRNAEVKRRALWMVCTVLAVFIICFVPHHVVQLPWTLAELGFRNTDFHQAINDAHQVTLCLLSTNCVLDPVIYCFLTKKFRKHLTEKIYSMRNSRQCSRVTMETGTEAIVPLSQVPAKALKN
assay_method_text: Binding test using [3H]-PAF (PAF receptor binding test)
Set-up: species or system rabbit
run_parameters: rabbit platelet membrane fraction, [3H]-PAF 0.4 nM, 25°C, 60 minutes; read-out: Receptor Binding Inhibition IC50 (converted)
assay_metric: IC50 (nM)
One number for each entry, in nM.

| molecule | assay_system | result_unit | IC50 |
| --- | --- | --- | --- |
| CCn1cc(C2CCN(CCCN3Cc4nnc(C)n4-c4ccccc43)CC2)c2ccccc21 [Compound 64] | PAF receptor (Oryctolagus cuniculus, UniProt G1TEI7) | nM | 806 |

Please report IC50 for every entry that follows.
1. Cc1cccc(C(=C2CCN(CCCN3Cc4nnc(C)n4-c4ccccc43)CC2)c2ccccc2)c1 [Compound 160]
2. Cc1nnc2n1-c1ccccc1N(CCCN1CCC(Nc3nc4ccccc4n3Cc3ccc(F)cc3)CC1)C2 [Compound 73]
3. COc1cccc(C(O)(c2ccccc2)C2CCN(CCCN3Cc4nnc(C)n4-c4ccccc43)CC2)c1 (stereo not shown) [Compound 133]

1: 198; 2: 5630; 3: 32.5

Cited source: patent EP0536419B1
